B1: library; a variant is named by its letters at N, in order (parent)
chain: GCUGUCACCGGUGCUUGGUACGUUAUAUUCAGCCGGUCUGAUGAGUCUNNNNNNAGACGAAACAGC

# Variants of: B1
# protocol-summary: normalized RNA/DNA level with ligand (relative to sTRSVctl = 100) (log10 (% of sTRSVctl)); HEK293T overexpressing SLC46A1; ligand concentration (+) RNA-Seq: 6 mM; higher = less ribozyme self-cleavage, higher mRNA level
# test-context: with (6R,S)-folinic acid; ligand present: yes
Measured normalized RNA/DNA level with ligand (log10) accompanies every entry in the list below.
observation-type: normalized RNA/DNA level with ligand (log10)

> print(dat)
    mutation.code  recorded.value
 1         UUUUCG               2
 2         GUGCCC            2.02
 3         GAGGGU            2.04
 4         CAAUCG            2.02
 5         CCCAGA            2.03
 6         GGAAAC            2.01
 7         GGCUGC            2.05
 8         AAAAAC            1.99
 9         UGUGAU               2
10         GAGUAU            2.01
11         AAAUAC               2
12         UUUAAG            1.96
13         GUCGCU               2
14         GGCCGA            2.05
15         UGCCCC            2.01
16         CGCUGA            2.05
17         UGCAGA               2
18         UGGUCC            2.04
19         AGAUCU            2.05
20         ACUUUA            2.01
21         CGUGUG            1.99
22         GCGGAC            2.05
23         ACACCC            1.97
24         GACUCC            2.06
25         UCCAAG            1.99
26         UUAUUC            2.02
27         UGAGGU            2.02
28         GUCGAC            2.03
29         UAAGAG            1.96
30         UUAAUU            2.01
31         AAAACG            1.99
32         GAGAAA               2
33         CGGGUC            2.06
34         UAAAAC            1.98
35         CAGUAC            1.97
36         AGAACG            2.02
37         GGGCCU            2.08
38         UGGUCA            2.04
39         AAUGCC            2.03
40         AAUAAC            1.99
41         AGUCUA            2.02
42         CAGUCG            2.04
43         GCGUGC            2.03
44         ACCCCA               2
45         AUUUAA            1.99
46         GAAUUU            2.01
47         GCGACG            2.02
48         CCAACC            1.99
49         GGAUUC            2.02
50         CAAGAA               2
51         UCAAAA            1.99
52         UAAGCG            1.96
53         CCUACG            2.04
54         AGGCAA            1.99
55         GGGGGC            2.03
56         UCGGGU            2.03
57         CGUAAC            1.99
58         UGAGGC            1.98
59         UCGACG               2
60         GUUUUU               2
61         UUAUAA            1.98
62         AAAUCU            2.03
63         GAAGGG            2.03
64         CGAAUC            2.03
65         GUCCUG            2.01
66         GAUUAC            2.02
67         CGAAAC            1.99
68         CUGUUG            2.03
69         CGAACG            2.02
70         AUUCCG            2.04
71         CGACCU            2.02
72         GGAACA            2.02
73         CACCGA            2.04
74         AGACCU            2.05
75         AUAGGU            2.01
76         AGCCCA            2.02
77         AUCGCG            2.02
78         UCCAGC            2.03
79         CGUCCG            2.04

# credit: the supplement of paper PMC6757056
